Recorded measurements of IC50, one per entry
- target: Phospholipase D2 (Homo sapiens, UniProt O14939)
- Sequence (O14939 whole entry): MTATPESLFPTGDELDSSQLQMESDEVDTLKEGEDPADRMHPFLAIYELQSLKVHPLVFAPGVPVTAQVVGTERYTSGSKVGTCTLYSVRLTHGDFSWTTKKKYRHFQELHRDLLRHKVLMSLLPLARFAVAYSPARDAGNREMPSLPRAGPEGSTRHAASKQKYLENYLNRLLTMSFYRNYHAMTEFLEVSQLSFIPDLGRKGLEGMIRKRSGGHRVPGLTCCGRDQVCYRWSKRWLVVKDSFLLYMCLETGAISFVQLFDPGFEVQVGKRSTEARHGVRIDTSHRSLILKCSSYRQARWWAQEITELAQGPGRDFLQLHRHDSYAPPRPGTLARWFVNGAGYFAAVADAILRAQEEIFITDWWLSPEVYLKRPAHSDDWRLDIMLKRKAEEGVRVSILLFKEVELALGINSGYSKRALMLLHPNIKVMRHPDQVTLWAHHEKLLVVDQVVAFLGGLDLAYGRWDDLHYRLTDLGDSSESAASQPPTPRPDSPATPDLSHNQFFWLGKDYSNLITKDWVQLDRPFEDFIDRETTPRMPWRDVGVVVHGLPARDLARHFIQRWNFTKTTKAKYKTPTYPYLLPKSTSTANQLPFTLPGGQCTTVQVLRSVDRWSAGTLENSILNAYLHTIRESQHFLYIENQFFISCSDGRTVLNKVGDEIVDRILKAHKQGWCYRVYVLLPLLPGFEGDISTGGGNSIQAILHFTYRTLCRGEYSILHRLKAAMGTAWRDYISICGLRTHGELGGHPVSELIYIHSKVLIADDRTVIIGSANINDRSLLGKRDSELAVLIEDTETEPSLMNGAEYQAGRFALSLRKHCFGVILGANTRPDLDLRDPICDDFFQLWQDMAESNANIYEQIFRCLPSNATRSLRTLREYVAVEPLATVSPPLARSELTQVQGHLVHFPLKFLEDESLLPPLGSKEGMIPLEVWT
- method: Inhibition of PLD2 (unknown origin) expressed in HEK293-gfp cells by cell-based assay

{"columns": ["compound", "IC50"],
 "data": [
  ["O=C(NCCN1CC2CC(n3c(=O)[nH]c4ccccc43)CC2C1)c1ccc(F)cc1 (stereo unspecified)", "3570 nM"]
]}

Quick one: IC50 of CC(CNC(=O)c1ccc(Br)cc1)N1CCC2(CC1)C(=O)NCN2c1ccccc1 (racemic) ?
120 nM

Which IC50 is listed for O=C(NCCN1CC2CC(n3c(=O)[nH]c4ccccc43)CC2C1)c1cc2ccccc2[nH]1 (stereo unspecified) ?
220 nM
